- experimental_system: T1, Activin A (UniProt P08476 311-426)
- T1 sequence (looked up): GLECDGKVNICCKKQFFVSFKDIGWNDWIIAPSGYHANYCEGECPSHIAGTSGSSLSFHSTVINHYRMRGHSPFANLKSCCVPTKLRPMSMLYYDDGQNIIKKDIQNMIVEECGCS
- assay_protocol: SPR (Biacore 8K), Fc protein captured on anti-human IgG, ligand injected
value_type: Kd (nM)
Quick note: give the figure in nM, leave out the unit.

So, ActRIIA-B4 (SEQ ID NO: 98) chimera-Fc protein (Fc fusion, Tested as chimera-Fc protein; not shown: linker (if any) and Fc domain) GAILGRSETQECLFFNANWEKDRTNQTGVEPCYGDKDKRRHCFATWKNISGTIELVKKGCWLDDINCYDRTDCVEKKDSPEVYFCCCEGNMCNEKFSYFPEMEVTQPTS ? Its Kd was 0.0186
